The entries below come with measured growth inhibition values attached.
method.description: NCI Yeast Anticancer Drug Screen. Data for the mlh1 rad18 strain (AID 175)
condition.notes: S. cerevisiae mlh1 rad18 strain growth inhibition; at 50.0 µM; hits give high values
Compounds without any hit were thinned out: in the full panel of roughly 79,000, 15% have a hit. Calls of active or inactive are those of the source. Rule as the data show it: active = growth inhibition above about 70%; inactive = the rest.

# annotated cases, reported growth inhibition shown
[[record]]
molecule = "S=C(SSSC(=S)N(C1CCCCC1)C1CCCCC1)N(C1CCCCC1)C1CCCCC1"
result = "17.2% (inactive)"

[[record]]
molecule = "O=C(NCCCCCCNC(=O)Nc1cccc(C(F)(F)F)c1)Nc1cccc(C(F)(F)F)c1"
result = "8.8% (inactive)"

[[record]]
molecule = "CCCCCCCC/C=C\\CCCCCCCCCCCC(=O)O"
result = "-6.25% (inactive)"

[[record]]
molecule = "C=C(C)COc1ccc2c(c1)CCC1C2CCC2(C)C1CCC2(C)O (configuration not stated)"
result = "6.6% (inactive)"

[[record]]
molecule = "O=Cc1ccc(-c2ccc([N+](=O)[O-])cc2)o1"
result = "3.6% (inactive)"

[[record]]
molecule = "COc1ccc(OC)c(/C=C2/C(=O)N(c3ccccc3)N=C2C)c1"
result = "4.75% (inactive)"


# ---- query molecule ----
Query :: Give the measured growth inhibition of CN=C1C=C(/N=C2/C=C(N/C(=C\C#N)C(C)(C)O)OC2(C)C)OC1(C)C .
Result :: 28.6% (inactive)

###

Listing of recorded growth inhibition by entry.
method.description: NCI Yeast Anticancer Drug Screen. Data for the bub3 strain (AID 167)
condition.notes: S. cerevisiae bub3 mutant strain, at 50.0 µM, hits give high values
Method: Growth inhibition of yeast strains with defined genetic alterations is measured as a screen for potential anti-cancer activity. Selected strains with alterations in DNA damage repair or cell cycle control were exposed to compounds and growth inhibition was measured relative to vehicle treated controls. The strain used in this assay is bub3
The panel holds about 79,000 compounds, 15% with a hit somewhere; the sample as a whole holds those more often.
Respond numerically; units are % and should not be typed.

Recorded growth inhibition, per entry:
[[record]]
mol_smiles = "Clc1ccc2oc(N3CCOCC3)nc2c1"
recorded_number = 15.7

[[record]]
mol_smiles = "Cc1ccc(Nc2nnc(-c3ccc4c(c3)OCO4)o2)c(C)c1"
recorded_number = -4

[[record]]
mol_smiles = "CC(C)NC(=O)CCC(=O)O"
recorded_number = 12.1


Attention now turns to another entry.
Query :: GET /values?readout=growth inhibition&item= C/C(N)=N/C(=O)OCCOC(=O)/N=C(\C)N
Result :: 15

###

method.description: NCI Yeast Anticancer Drug Screen. Data for the sgs1 mgt1 strain (AID 161);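 also: 0% = growth of cultures given vehicle only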
condition.notes: S. cerevisiae sgs1 mgt1 strain, at 50.0 µM, hits give high values
The panel holds about 79,000 compounds, 15% with a hit somewhere; the sample as a whole holds those more often.
test.readout: growth inhibition (%)
Report only the number, with the unit % understood.

Reference set, count: 10
[[record]]
compound = "CCC(CC)COC(=O)c1ccccc1"
test_readout = "growth inhibition"
unit_abbrev = "%"
recorded_number = -3.75

[[record]]
compound = "CC(CO)(CO)N1C(=O)c2cccc3cc([N+](=O)[O-])cc(c23)C1=O"
test_readout = "growth inhibition"
unit_abbrev = "%"
recorded_number = 50.1

[[record]]
compound = "CCCCOC1NC(=O)Oc2ccccc21 (stereo unspecified)"
test_readout = "growth inhibition"
unit_abbrev = "%"
recorded_number = -3.15

[[record]]
compound = "COc1ccc(CCn2nccc2C)cc1"
test_readout = "growth inhibition"
unit_abbrev = "%"
recorded_number = -4.3

[[record]]
compound = "COC(=O)C(CC(=O)C=[N+]=[N-])NC(=O)C(Cl)Cl (stereo unspecified)"
test_readout = "growth inhibition"
unit_abbrev = "%"
recorded_number = -4.7

[[record]]
compound = "CCCC(=O)NC(Nc1ccc(S(=O)(=O)Nc2ccc(OC)nn2)cc1)(C(F)(F)F)C(F)(F)F"
test_readout = "growth inhibition"
unit_abbrev = "%"
recorded_number = -0.6

[[record]]
compound = "N#Cc1sc2c(c1OC(=O)c1ccc(C(F)(F)F)cc1)c(=O)n(-c1ccccc1)c(=S)n2-c1ccccc1"
test_readout = "growth inhibition"
unit_abbrev = "%"
recorded_number = 1.05

[[record]]
compound = "O=C(CC(=O)N1CCOCC1)N1CCOCC1"
test_readout = "growth inhibition"
unit_abbrev = "%"
recorded_number = 26.9

[[record]]
compound = "O=C1Nc2ccc3c4c(ccc1c24)CC3"
test_readout = "growth inhibition"
unit_abbrev = "%"
recorded_number = -0.3

[[record]]
compound = "CC(=O)NNC(=O)c1ccc(Br)cc1"
test_readout = "growth inhibition"
unit_abbrev = "%"
recorded_number = 0.5


Note: attention shifts to another entry.
Query :: I would be grateful if you could share the reported growth inhibition for CN(C)CCSCC(=O)N1c2ccccc2Sc2ccc(Cl)cc21 .
Result :: -2.9
